# assay_summary: Validation screen for small molecules that induce genotoxicity in human embryonic kidney (HEK293T) cells expressing luciferase-tagged ELG1 (AID 493106)
# conditions: luminescence; series mostly up to 46.1 µM
Records with an inconclusive call do not appear. The source made the active and inactive calls. The call rests on the fitted dose curve; in most records, active means well fitted activation curve with a large enough effect; inconclusive means small, poorly fitted or top-dose-only effect; inactive means no such curve, though single readings can be large or run the other way.
Outcome codes: TRUE for active, FALSE for inactive

{"compound": "CC(C)Cc1ccc([C@H](C)C(=O)O)cc1", "class_label": "FALSE"}
{"compound": "CC(=O)N[C@H](C(=O)O)C(C)(C)SN=O", "class_label": "FALSE"}
{"compound": "CN1CCC[C@H]1c1cccnc1", "class_label": "FALSE"}
{"compound": "NCCNC(=O)c1ncsc1-c1cccc(F)c1", "class_label": "FALSE"}
{"compound": "O=C(O)c1cc(=O)c2ccccc2[nH]1", "class_label": "FALSE"}
{"compound": "CC[C@@H](C)[C@H]1O[C@]2(CC[C@H]1C)C[C@@H]1C[C@@H](CC=C(C)[C@@H](O[C@H]3C[C@H](OC)[C@@H](O[C@H]4C[C@H](OC)[C@@H](O)[C@H](C)O4)[C@H](C)O3)[C@@H](C)C=CC=C3CO[C@@H]4[C@H](O)C(C)=C[C@@H](C(=O)O1)[C@]34O)O2", "class_label": "FALSE"}
{"compound": "OC[C@H]1O[C@@H](n2cnc3c(NC4CCCCC4)ncnc32)[C@H](O)[C@@H]1O", "class_label": "FALSE"}
{"compound": "Cc1cc(NC2CCCCC2)nc(-n2nc(C)cc2C)n1", "class_label": "FALSE"}
{"compound": "C#CCN1C(C)=C(C(=O)OC)C(c2cccc([N+](=O)[O-])c2)C(C(=O)OCC)=C1C (stereo unspecified)", "class_label": "FALSE"}
{"compound": "COc1ccc(NC(=O)/C=C/c2ccc(Cl)cc2)cc1", "class_label": "TRUE"}
{"compound": "O=C(c1ccc(Cl)cc1)N1CCN(c2ccc([N+](=O)[O-])c3ncccc23)CC1", "class_label": "FALSE"}
{"compound": "CC(=O)SCC[N+](C)(C)C", "class_label": "FALSE"}
{"compound": "Nc1ncnc2c1ncn2[C@@H]1O[C@H](COP(=O)(O)OP(=O)(O)OP(=O)(O)OP(=O)(O)OC[C@@H]2O[C@H](n3cnc4c(N)ncnc43)[C@@H](O)[C@H]2O)[C@@H](O)[C@H]1O", "class_label": "FALSE"}
{"compound": "CN1C2CCC1CC(OC(=O)C(O)c1ccccc1)C2 (stereo unspecified)", "class_label": "FALSE"}
{"compound": "OC[C@H]1O[C@@H](n2cnc3c(Nc4ccccc4)ncnc32)[C@H](O)[C@@H]1O", "class_label": "TRUE"}
{"compound": "C=C[C@H]1CN2CC[C@@H]1C[C@@H]2[C@@H](O)c1ccnc2ccc(OC)cc12", "class_label": "FALSE"}
